Test system: PNT2 cells (human prostate non-cancer)
Test: MTT assay, PNT2
Format: cell-based
Conditions: PNT2, 48 h, mean ± SD
value-kind: IC50 (nM)
The figure you give is taken to be in nM; do not add the unit.

## Task Data request, read-out IC50, for `O=C1c2ccccc2-[n+]2ccc3c([nH]c4ccccc43)c21`
## Result 457

## Task Data request, read-out IC50, for `CC(C)(C)c1cc2c([nH]c3ccccc32)c2[n+]1-c1ccccc1C2=O`
## Result 1820

====

System: human prostate cancer cells and normal (non-cancerous) human cells
Experiment: MTT assay, cancer and non-cancer cell lines together (selectivity, overall cytotoxicity)
Format: cell-based
Settings: Homo sapiens; all tested cancer and non-cancer cell lines; read-out: IC50 in either cell line
value-kind: IC50

## Task Data request, read-out IC50, for `CC(C)(C)c1cc2c([nH]c3ccccc32)c2[n+]1-c1ccccc1C2=O`
## Result ≤ 2000 nM

====

Recorded IC50 by entry
Test system: HEK293 cells (human embryonic kidney)
Test: MTT assay, HEK293
Assay type: cell-based
Conditions: HEK293, 48 h, mean ± SD
The figure you give is taken to be in nM; do not add the unit.

compound	experimental-system	value-kind	units-text	data-value
O=C1c2ccccc2-[n+]2ccc3c([nH]c4ccccc43)c21 [Compound 1, fascaplysin]	HEK293 cells (human embryonic kidney)	IC50	nM	458

Now look at this one.
## Task Data request, read-out IC50, for CC(C)(C)c1cc2c([nH]c3ccccc32)c2[n+]1-c1ccccc1C2=O [Compound 4, 6-tert-butylfascaplysin]
## Result 348
